assay: in vivo; assay type: in vivo; conditions: rat, in vivo, therapeutic breadth, worked out with the cited LD50 of m (male) rats; read-out: Q LD50/ED50
Property name: selectivity ratio
Lab note: jot the number down without any unit.

IN: Please give the measured selectivity ratio for this compound: CC(C)N(CCC(C(N)=O)(c1ccccc1)c1ccccn1)C(C)C (racemic)
OUT: 55

----------
experiment: in vivo; type: in vivo; details: in vivo; therapeutic breadth, rat LD50 / rat CaCl2-arrhythmia ED50; read-out: Q LD50/ED50
Would you mind telling me the reported selectivity ratio of each entry?
Lab note: jot the number down without any unit.

IN: Please give the measured selectivity ratio for this compound: `CN1C(=O)c2ccccc2N(C(=O)CCCCCNC2CCCCC2)c2ccccc21`
OUT: 1280

IN: Please give the measured selectivity ratio for this compound: `CN1C(=O)c2ccccc2N(C(=O)CCCCCNC2CCCCC2)c2ccc(Cl)cc21`
OUT: 106
